self-cleavage values by entry
B1: CPEB3 Ribozyme (parent)
chain: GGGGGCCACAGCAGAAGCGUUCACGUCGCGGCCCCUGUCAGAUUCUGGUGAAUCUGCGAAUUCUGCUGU

Variants of: B1
Test: self-cleavage, relative activity (ratio to wild type); higher = more cleavage; co-transcriptional
measuredEndpoint: self-cleavage

- variantLabel: "G50C U64A"
  valueReported: 0.792
- variantLabel: "C22A A52C"
  valueReported: 0.173
- variantLabel: "A13C U43C"
  valueReported: 0.685
- variantLabel: "U21G U49G"
  valueReported: 0.486
- variantLabel: "A16C C66U"
  valueReported: 0.203
- variantLabel: "G50C A60G"
  valueReported: 0.959
- variantLabel: "U46C A52U"
  valueReported: 0.974
- variantLabel: "C35A G50C"
  valueReported: 0.252
- variantLabel: "A59C U61A"
  valueReported: 0.483
- variantLabel: "G14U U44G"
  valueReported: 0.566
- variantLabel: "C22G G31C"
  valueReported: 0.0776
- variantLabel: "A16C G65C"
  valueReported: 0.174
- variantLabel: "G2C C29A"
  valueReported: 0.0311
- variantLabel: "A23U A51G"
  valueReported: 0.954
- variantLabel: "G1U C39G"
  valueReported: 0.103
- variantLabel: "U38G U62G"
  valueReported: 0.183
- variantLabel: "G37U A40U"
  valueReported: 0.257
- variantLabel: "G28A G48C"
  valueReported: 0.213
- variantLabel: "G31U G37A"
  valueReported: 0.206
- variantLabel: "U44C U55G"
  valueReported: 0.372
- variantLabel: "G4A G31A"
  valueReported: 0.227
- variantLabel: "G25U U61A"
  valueReported: 0.175
- variantLabel: "U44G G48A"
  valueReported: 0.963
- variantLabel: "G17C A59G"
  valueReported: 0.122
- variantLabel: "C9U U43G"
  valueReported: 0.967
- variantLabel: "U53C U67C"
  valueReported: 0.872
- variantLabel: "A8U C9A"
  valueReported: 1.03
- variantLabel: "A40C"
  valueReported: 0.702
- variantLabel: "G17C C29U"
  valueReported: 0.199
- variantLabel: "G19A G68C"
  valueReported: 0.209
- variantLabel: "G19U G47C"
  valueReported: 0.677
- variantLabel: "G4U G65U"
  valueReported: 0.254
- variantLabel: "U38A C39A"
  valueReported: 0.748
- variantLabel: "C22A U44A"
  valueReported: 0.184
- variantLabel: "A23G G48A"
  valueReported: 1
- variantLabel: "G11U U55A"
  valueReported: 0.36
- variantLabel: "G17A U55A"
  valueReported: 0.195
